Tested on: A498 (Renal cancer)
protocol: NCI-60 screen (SRB, 48 h)
conditionDetails: Homo sapiens, A498
observable: GI50 (nM)
# unit: nM | format: bare number

Example cases with answers are listed next.
{"columns": ["smilesString", "GI50 [nM]"],
 "data": [
  ["C[C@H]1[C@H](C)CC[C@]2(CO)CC[C@]3(C)C(=CC[C@@H]4[C@@]5(C)CCCNC(C)(C)[C@@H]5CC[C@]43C)[C@H]12", 1630],
  ["CC1(C)CC[C@]2(CO)CC[C@]3(C)C(=CC[C@@H]4[C@@]5(C)CCCNC(C)(C)[C@@H]5CC[C@]43C)[C@@H]2C1", 16700],
  ["C[C@H]1[C@H](C)CC[C@]2(C(=O)Nc3ccc4ncccc4c3)CC[C@]3(C)C(=CC[C@@H]4[C@@]5(C)CCCNC(C)(C)[C@@H]5CC[C@]43C)[C@H]12", 1560],
  ["CC(C)=C1CCC=C2CC[C@]3(C)[C@H](CC[C@@H]4[C@@]5(C)CCCNC(C)(C)[C@@H]5CC[C@]43C)[C@H]21", 1870],
  ["C=C(C)[C@@H]1CCC=C2CC[C@]3(C)[C@H](CC[C@@H]4[C@@]5(C)CCCNC(C)(C)[C@@H]5CC[C@]43C)[C@H]21", 2030]
]}

A498 (Renal cancer) / GI50 / C=C(C)[C@@H]1CC[C@]2(COS(=O)(=O)c3ccc(C)cc3)CC[C@]3(C)[C@@H](CC[C@@H]4[C@@]5(C)CCCNC(C)(C)[C@@H]5CC[C@]43C)[C@@H]12 : value?
1630

Also C=C(C)[C@@H]1CC[C@]2(C(=O)N[C@H](CO)Cc3ccccc3)CC[C@]3(C)[C@H](CC[C@@H]4[C@@]5(C)CCCNC(C)(C)[C@@H]5CC[C@]43C)[C@@H]12 ?
1490

Ok, now Cc1ccc(S(=O)(=O)OC[C@@]2(C)CC[C@]3(C)CC[C@]4(C)C(=C3C2)C=C[C@@H]2[C@@]3(C)CCCNC(C)(C)[C@@H]3CC[C@]24C)cc1
1710

====

Tested on: ACHN (Renal cancer)
protocol: NCI-60 screen (SRB, 48 h)
conditionDetails: Homo sapiens
observable: GI50 (µM)
Unit µM implied. Number only.

Below: 5 compounds and their reported GI50.
{"columns": ["compound", "GI50, µM"],
 "data": [
  ["CC1(C)CC[C@]23CC[C@]4(C)[C@H](CC[C@@H]5[C@@]6(C)CCCNC(C)(C)[C@@H]6CC[C@]54C)[C@H]2[C@H]1OC3 [Compound 7, Azepanoallobetulin]", 1.71],
  ["C=C(C)[C@@H]1CC[C@]2(COS(=O)(=O)c3ccc(C)cc3)CC[C@]3(C)[C@@H](CC[C@@H]4[C@@]5(C)CCCNC(C)(C)[C@@H]5CC[C@]43C)[C@@H]12 [Compound 12]", 1.98],
  ["C=C(C)C1CCC2(CO)CCC3(C)C(CCC4C5(C)CCCNC(C)(C)C5CCC43C)C12 (centres unmarked) [Compound 1, Azepanobetulin]", 1.7],
  ["Cc1ccc(S(=O)(=O)OC[C@]23CCC(C)(C)C[C@H]2C2=CC[C@@H]4[C@@]5(C)CCCNC(C)(C)[C@@H]5CC[C@@]4(C)[C@]2(C)CC3)cc1 [Compound 15]", 1.68],
  ["C=C(C)[C@@H]1CC[C@]2(C(=O)N[C@H](CO)Cc3ccccc3)CC[C@]3(C)[C@H](CC[C@@H]4[C@@]5(C)CCCNC(C)(C)[C@@H]5CC[C@]43C)[C@@H]12 [Compound 11]", 1.71]
]}

Reported GI50, compound C=C(C)[C@@H]1CC[C@]2(C)[C@H](CC=C3[C@@H]4[C@@H](C)[C@H](C)CC[C@]4(CO)CC[C@]32C)[C@@]1(C)CCCN [Compound 19] : ____
1.42

Try the compound CC(C)=C1CCC=C2CC[C@]3(C)[C@H](CC[C@@H]4[C@@]5(C)CCCNC(C)(C)[C@@H]5CC[C@]43C)[C@H]21 [Compound 9]
1.76

Moving on to the next compound: C[C@H]1[C@H](C)CC[C@]2(CO)CC[C@]3(C)C(=CC[C@@H]4[C@@]5(C)CCCNC(C)(C)[C@@H]5CC[C@]43C)[C@H]12 [Compound 4, azepanouvaol]
1.69

Subsequent entry: C[C@H]1[C@H](C)CC[C@]2(C(=O)Nc3ccc4ncccc4c3)CC[C@]3(C)C(=CC[C@@H]4[C@@]5(C)CCCNC(C)(C)[C@@H]5CC[C@]43C)[C@H]12 [Compound 14]
1.77

Another compound: C=C(C)[C@@H]1CC[C@]2(C)[C@H](C=CC3=C4C[C@@](C)(CO)CC[C@]4(C)CC[C@]32C)[C@@]1(C)CCCN [Compound 20]
1.76

Request: CC1(C)CC[C@]2(CO)CC[C@]3(C)C(=CC[C@@H]4[C@@]5(C)CCCNC(C)(C)[C@@H]5CC[C@]43C)[C@@H]2C1 [Compound 3, azepanoerythrodiol]
3.44
